Attribution: the supplement of paper PMC7380943

Property: NHEJ repair efficiency (log10); scope: individual compounds
Tested on: CLZ3 (HCA2 human fibroblast dual HR-NHEJ reporter);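 further: compound given one day ahead of doxycycline, which switches on I-SceI endonuclease to cut the chromosomally integrated reporter and create DSBs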
methodDescription: NHEJ repair efficiency (GFP+ cells) relative to control (log10 fold); higher = more non-homologous end joining
testContext: 5 µM; doxycycline 0.5 ug/mL
Reply briefly: the number, and no unit.

Here are 2 compounds together with their reported answers.
COc1ccc2c(c1O)-c1c(O)c(OC)cc3c1[C@H](C2)[N+](C)(C)CC3 [Magnoflorine iodide] ... 0.122
COc1ccc(CCC(=O)c2c(O)cc(OC3OC(CO)C(O)C(O)C3OC3OC(C)C(O)C(O)C3O)cc2O)cc1O (stereo not drawn) [Neosperidin Dihydrochalcone] ... -0.0639

Next compound, please.
Param item = `CC1(C)[C@@H](O)CC[C@]2(C)[C@H]3C(=O)C=C4[C@@H]5C[C@@](C)(C(=O)O)CC[C@]5(C)CC[C@@]4(C)[C@]3(C)CC[C@@H]12` ; retrieve measured NHEJ repair efficiency (log10). 0.0065
